Listed below: shrunken log2 fold change values for each entry.
system: Escherichia coli TOP10; assay: shrunken log2 fold change of peptide-encoding DNA abundance (4.5 h post-induction vs induction); higher = less antimicrobial activity (less host growth inhibition); conditions: time post-induction: 4.5 h; library: site-saturation at positions 5, 18, 19, 20;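 note: peptides expressed intracellularly from a pBAD plasmid library in pooled LB shake-flask culture, induced with 0.3% L-arabinose, DNA abundance read by NGS, three biological replicates, DESeq2 with apeglm shrinkage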
Keep it simple and answer with nothing but the number.

Past entries and their recorded results:
RRIRRRPPRLPRPRPRPQIFPRP : -0.0198
RRIRPRPPRLPRPRPRPSCDPRP : -0.273
RRIRERPPRLPRPRPRPAQSPRP : 0.0517
RRIRGRPPRLPRPRPRPGSIPRP : 0.185
RRIRGRPPRLPRPRPRPKGDPRP : 0.0175

For the next question, use this sequence.
For "RRIRPRPPRLPRPRPRPLLTPRP" , what is its reported shrunken log2 fold change?
0.252

Reference source for all entries: the supplement of paper PMC9112550
